- test system: human ether-à-go-go-related gene (hERG) potassium channel (human);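 note: peak tail current of the secondary pulse compared with the same well before compound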
- Sequence (Q12809 whole entry, looked up): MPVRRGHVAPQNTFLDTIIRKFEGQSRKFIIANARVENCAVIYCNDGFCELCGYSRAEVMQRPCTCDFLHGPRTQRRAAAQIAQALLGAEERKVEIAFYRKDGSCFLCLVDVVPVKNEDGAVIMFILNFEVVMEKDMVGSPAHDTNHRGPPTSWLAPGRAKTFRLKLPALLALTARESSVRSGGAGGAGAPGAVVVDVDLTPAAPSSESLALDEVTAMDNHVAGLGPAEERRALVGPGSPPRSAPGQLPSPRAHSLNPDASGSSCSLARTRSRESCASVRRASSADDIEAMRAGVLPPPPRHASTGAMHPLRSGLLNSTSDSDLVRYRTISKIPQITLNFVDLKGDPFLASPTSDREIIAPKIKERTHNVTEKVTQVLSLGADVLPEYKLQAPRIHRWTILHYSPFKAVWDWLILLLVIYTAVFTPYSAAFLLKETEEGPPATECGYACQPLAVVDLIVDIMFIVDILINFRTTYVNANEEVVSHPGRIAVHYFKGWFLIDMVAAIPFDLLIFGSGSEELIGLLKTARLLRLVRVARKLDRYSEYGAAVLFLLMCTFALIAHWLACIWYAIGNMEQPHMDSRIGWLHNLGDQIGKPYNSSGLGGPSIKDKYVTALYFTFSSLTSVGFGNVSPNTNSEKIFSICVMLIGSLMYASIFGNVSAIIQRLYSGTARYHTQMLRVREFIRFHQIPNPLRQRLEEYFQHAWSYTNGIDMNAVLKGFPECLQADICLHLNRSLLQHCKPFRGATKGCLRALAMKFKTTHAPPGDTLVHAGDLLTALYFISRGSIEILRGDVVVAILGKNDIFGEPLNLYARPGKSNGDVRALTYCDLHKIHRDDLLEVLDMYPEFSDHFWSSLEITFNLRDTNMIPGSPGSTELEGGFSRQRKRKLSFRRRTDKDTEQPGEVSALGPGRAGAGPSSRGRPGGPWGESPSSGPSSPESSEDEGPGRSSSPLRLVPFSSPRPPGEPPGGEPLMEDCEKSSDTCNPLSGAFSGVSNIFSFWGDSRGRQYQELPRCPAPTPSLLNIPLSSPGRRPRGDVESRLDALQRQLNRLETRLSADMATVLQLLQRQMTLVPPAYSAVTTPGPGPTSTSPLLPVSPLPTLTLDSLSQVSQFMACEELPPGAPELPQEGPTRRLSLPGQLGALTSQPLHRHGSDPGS
- procedure summary: primary screen, population patch clamp on CHO cells stably expressing hERG; higher = less effect of the substance
In all, about 310,000 compounds went through this assay and about 14,000 (4.5%) showed an effect of 50% or more. Effects have a minus sign here. Shown is part of a subset that was picked to be rich in strong results.
reported endpoint: hERG current change (%, negative = inhibition) at 10uM

| compound | assay value |
| --- | --- |
| COCC(C)NC(=O)CSc1nc2nn(-c3ccccc3)c(=O)c-2c2n1CCCCC2 (stereo not shown) | 8.5% |
| CN(C)CC1CCCCC1OC(=O)c1ccc(Cl)c(Cl)c1.Cl (stereo not shown) | -52.1% |
| CN(C)CC1CCCCC1OC(=O)/C=C/c1ccc(Cl)cc1Cl.Cl (stereo not shown) | -32.4% |
| Cc1ccc(S(=O)(=O)N2CCN(Cc3nc4sc5c(c4c(=O)[nH]3)CCCC5)CC2)cc1 | -21.3% |
| Cc1[nH]n(-c2cccc(Cl)c2)c(=O)c1-c1ccccc1 | 17.1% |
| Cc1cc(N2CCN(C)CC2)nc2ccc(NC(=O)CCC(=O)NCCC(C)C)cc12 | 13.8% |
| O=C(CSc1nc2nn(-c3ccccc3)c(=O)c-2c2n1CCCCC2)NCCCc1ccccc1 | -63.1% |
| COc1ccc(CN2CCN(Cc3ccc(C(F)(F)F)cc3)CC2)cc1.O=C(O)C(=O)O | -65.7% |
| O=C(CSc1ccccc1)N1CCN(S(=O)(=O)c2ccccc2F)CC1 | -23.9% |
| O=c1[nH]c(CN2CCCC2)nc2sc3c(c12)CCC3 | 20.5% |
| CN1CCC(OC(=O)c2ccccc2Cl)CC1.Cl | 0.522% |
| Cc1cccc(NC(=O)CCc2nc3sc4c(c3c(=O)[nH]2)CCCC4)c1 | 10.8% |
| O=C1[C@@H]2[C@H](C(=O)N1Cc1cccnc1)[C@H]1C=C[C@@H]2C1 | -3.89% |
| Cc1ccc(NC(=O)c2c([N+](=O)[O-])c(C(C)(C)C)nn2C)c(C)c1 | 20.7% |
| O=C(O)c1cc2n(n1)C(C(F)(F)F)CC(c1ccco1)N2 (stereo not shown) | 22.2% |
| COCCNC(=O)CSc1nc2nn(-c3ccccc3)c(=O)c-2c2n1CCCCC2 | 23.2% |
| Cc1cc(SCC(=O)Nc2c(C)n(C)n(-c3ccccc3)c2=O)nc2ccccc12 | -38.7% |
| O=c1[nH]c(CN2CCN(S(=O)(=O)c3ccccc3C(F)(F)F)CC2)nc2sc3c(c12)CCCC3 | 10.9% |
| CC(C)(C)NCC(=O)N/N=C/c1ccc(OCc2ccccc2)cc1 | -60.5% |
| Cl.O=C(CCN1CCC(c2ccccc2)C1)c1ccccc1 (stereo not shown) | -35.8% |
| CN(C)CC1CCCCC1OC(=O)c1ccc(Cl)cc1Cl.Cl (stereo not shown) | -56.5% |
| CCN1CCN(C(=S)Nc2ccc3nc(N4CCN(C)CC4)cc(C)c3c2)CC1 | -2.94% |
| O=C(CSc1nnc(-c2ccncc2)n1Cc1ccco1)N1c2ccccc2Sc2ccc(Cl)cc21 | -2.92% |
| Cc1cc(N2CCN(C)CC2)nc2ccc(NC(=S)N3CCOCC3)cc12 | -15.4% |
| CS(=O)(=O)N1CCN(Cc2ccc(C(F)(F)F)cc2)CC1.O=C(O)C(=O)O | 0.441% |
| CN(C)CC1CCCCC1OC(=O)c1ccc(Br)cc1.Cl (stereo not shown) | -7.82% |
| Cc1ccc(OCCNC(=O)/C=C/c2ccccc2)cc1C | -8.32% |
| O=C(O)c1cccc(-n2cccc2/C=N/O)c1 | 11.4% |
| CC(C)CNC(=O)CSc1nc2nn(-c3ccccc3)c(=O)c-2c2n1CCCCC2 | -18% |
| COc1ccc2oc(C(=O)NCCC(C)C)c(C)c2c1 | -0.78% |
| Cl.O=C(CCN1CCC(c2ccccc2)C1)c1ccc2c(c1)OCCO2 (stereo not shown) | -56% |
| CCOc1ccc(NC(=O)N2CCCC2C(=O)NCC2CCCO2)cc1 (stereo not shown) | 18.5% |
| CCN1CCN(c2cc(C)c3cc(NC(=S)N4CCCC(C)C4)ccc3n2)CC1 (stereo not shown) | -51.3% |
| CCOc1ccc(/C=N/NC(=O)c2[nH]ncc2Br)c(O)c1 | 4.05% |
| Cc1ccc(C(=O)N2CCN(Cc3nc4sc5c(c4c(=O)[nH]3)CCCC5)CC2)cc1 | -76% |
| O=C(c1ccccc1F)N1CCN(Cc2nc3sc4c(c3c(=O)[nH]2)CCCC4)CC1 | -81.6% |
| Cc1[nH]n(-c2ccccc2)c(=O)c1CCO | 13.7% |
| Cc1cc(=O)c2cc(Br)ccc2[nH]1 | 8.12% |
| CCN1CCN(C(=S)Nc2ccc3nc(N4CCN(CC)CC4)cc(C)c3c2)CC1 | -13.9% |
| COc1cccc(C(=O)N2CCN(Cc3ccc(OC)cc3OC)CC2)c1.O=C(O)C(=O)O | -38.9% |
